B1: library; a variant is named by its letters at N, in order (parent)
chain: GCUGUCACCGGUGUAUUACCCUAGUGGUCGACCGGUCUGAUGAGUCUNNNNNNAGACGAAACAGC

variants of: B1; assay: normalized RNA/DNA level without ligand (relative to sTRSVctl = 100) (log10 (% of sTRSVctl)); ligand: hypoxanthine (xanthine aptamer); higher = less ribozyme self-cleavage, higher mRNA level; conditions: HEK293T, reporter: mCherry (pCS4076), ligand present: no
readout-label: normalized RNA/DNA level without ligand (log10)

Here's what some known entries look like.
UCGCUG : 1.8
GGCUUU : 1.98
UGUUCA : 1.87

Please fill in: normalized RNA/DNA level without ligand (log10) reported for "GGAUGA" = 1.62

Please fill in: normalized RNA/DNA level without ligand (log10) reported for "UUAGCG" = 1.8

Please fill in: normalized RNA/DNA level without ligand (log10) reported for "ACCAAU" = 1.74

Please fill in: normalized RNA/DNA level without ligand (log10) reported for "GUGUUU" = 1.87

Please fill in: normalized RNA/DNA level without ligand (log10) reported for "AGUCAC" = 1.88

Please fill in: normalized RNA/DNA level without ligand (log10) reported for "GUUCCG" = 1.72

Please fill in: normalized RNA/DNA level without ligand (log10) reported for "CUAACG" = 1.88

Please fill in: normalized RNA/DNA level without ligand (log10) reported for "CAUGGC" = 1.87

Please fill in: normalized RNA/DNA level without ligand (log10) reported for "UCGUCC" = 1.95

Please fill in: normalized RNA/DNA level without ligand (log10) reported for "CUGCGC" = 1.92
